# Test system: ATP;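 note: ATP exposure 15 min at 22 °C before imaging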
# assay_method_text: switch fluorescence ratio, 500 uM ATP over buffer (Cy3 cluster intensity, sum of 5 cycles each) (fold (ratio)); higher = stronger signal-on switching upon ATP binding; sequences stand for … in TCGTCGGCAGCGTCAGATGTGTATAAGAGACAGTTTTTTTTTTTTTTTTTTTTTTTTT…TC
# recorded_conditions: aptamer strand: ATP DNA aptamer (quencher-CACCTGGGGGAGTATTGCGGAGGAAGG + anchor), 100 nM annealed; ATP concentration: 500 uM
# switch fluorescence ratio per entry
# output: bare number, no unit

A selection of reference data follows.
# chain_sequence, observed_value
records = [
    ("ATGGATTTAC", 1.06),
    ("TGTTTAAATT", 0.983),
    ("TAGGCTGGGG", 0.998),
    ("TTGTTGGTGC", 1.09),
]

Query for ATP: what switch fluorescence ratio does the record show for "GAATTTCGAT" ?
0.976

Then "AAGGGGTGAC" ?
0.977

Then "GAATCTTGCG" ?
0.96

Then "CAGTTTTGAG" ?
0.992

Then "TTTTATGCGT" ?
0.993

Then "TTTAATTGG" ?
1

Then "ATCTGTGATG" ?
0.987

Then "CTTCCACGGT" ?
1.21

Then "CAAGGATTTT" ?
0.993

Then "CAGGTTTAGT" ?
0.968
